Tested on: Voltage-gated sodium channel
Assay: SafetyScreen: Sodium Ion Channel Site 2 (Non-Selective) Rat Ion Channel [3H] Batrachotoxinin Binding LeadHunter Assay, catalogue number: 169
Type: protein assay
Conditions: at 10 µM, test compound concentration 10 uM
readout kind: Inhibition (%)
Numbers only, in %.

Cc1nn(C)cc1-c1cc2c(N[C@H](c3ccc4c(c3)S(=O)(=O)CCC4)C(C)C)ncnc2[nH]1; -1
CNC(=O)Cn1cc(-c2cc3c(N[C@@H](c4ccc5c(c4)S(=O)(=O)CCC5)C(C)C)ncnc3[nH]2)cn1; 11
COc1ccc([C@H](Cc2nnn[nH]2)NC(=O)c2ncnc3[nH]ccc23)cc1; -3

Batch request: Inhibition for each of the following compounds.
1. CNCc1cc(-c2cc3c(N[C@@H](c4ccc5c(c4)S(=O)(=O)CCC5)C(C)C)ncnc3[nH]2)co1
2. CC(C)[C@@H](Nc1ncnc2[nH]c(-c3cnn(C)c3C#N)cc12)c1ccc2c(n1)OCCO2

Return:
1: 19; 2: 12

Enquiry: Consider the compound shown here: CC(C)[C@H](Nc1ncnc2[nH]ccc12)c1ccc2c(c1)S(=O)(=O)CCC2 What is its recorded Inhibition?
Return: -5
